Biological target: Somatostatin receptor 3 (SSTR3) (human), P32745
Sequence (P32745 whole entry): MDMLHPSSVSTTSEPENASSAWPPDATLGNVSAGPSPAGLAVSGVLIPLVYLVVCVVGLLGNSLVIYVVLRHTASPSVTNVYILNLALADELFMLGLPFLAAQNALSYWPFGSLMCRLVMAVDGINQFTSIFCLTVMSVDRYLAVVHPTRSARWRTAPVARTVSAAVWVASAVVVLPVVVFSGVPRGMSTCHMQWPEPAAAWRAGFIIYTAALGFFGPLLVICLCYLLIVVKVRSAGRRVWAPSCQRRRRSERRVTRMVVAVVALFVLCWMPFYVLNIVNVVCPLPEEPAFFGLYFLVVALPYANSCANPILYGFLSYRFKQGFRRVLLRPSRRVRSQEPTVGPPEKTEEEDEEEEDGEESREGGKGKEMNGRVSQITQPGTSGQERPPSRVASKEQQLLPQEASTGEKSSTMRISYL
Conditions: L-mesityl alanine (Msa) in place of Phe5; D-Trp at position 7; disulfide bridge between the two cysteines
Readout Label: pIC50
Recall that pIC50 is obtained by taking minus log10 of the concentration measured in molar.

Input: Quickly give me recorded pIC50 for PCKNFFWKTFTSCK [Cortistatin analogue 4]
Output: 8.74

Provenance of the data: paper PMC7994712
